Listed here: items and their measured protein stability index.
B1: SERPINB5 (parent)
chain: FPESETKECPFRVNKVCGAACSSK

variants of: B1; assay: protein stability index of a GFP-peptide fusion (GPS, HEK-293T) (PSI 1-6); higher = more stable; conditions: c terminus: a fixed tail appended;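 also: lentivirally expressed fusions sorted by FACS into six bins by GFP to DsRed ratio, PSI derived from sequencing read proportions per bin multiplied by bin number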
Write the number on its own, no unit after it.

{"SEQUENCE_STRING": "FPESETKECPFRVNKVQGAACSSK [C17Q]", "ENDPOINT_RESULT": 2.4}
{"SEQUENCE_STRING": "FPESETKECPFRVNKVCGAWCSSK [A20W]", "ENDPOINT_RESULT": 1.94}
{"SEQUENCE_STRING": "FPESETKECPFQVNKVCGAACSSK [R12Q]", "ENDPOINT_RESULT": 3.36}
{"SEQUENCE_STRING": "FPESETQECPFRVNKVCGAACSSK [K7Q]", "ENDPOINT_RESULT": 2.86}
{"SEQUENCE_STRING": "FPESETKECPFRVNKVCSAACSSK [G18S]", "ENDPOINT_RESULT": 3.42}

# ---- query variant ----
Incoming: Recorded protein stability index of FPESVTKECPFRVNKVCGAACSSK [E5V] , please.
Outgoing: 2.52
